assay: E. coli acrAB mutant growth effects, primary screen, E. coli filamentation inducers, strain DRC39, OD650, 48 h (AID 1179);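 also: screen aims at cell division blockers that make cells filament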; conditions: E. coli DRC39 delta-acrAB growth, higher = more signal, called active from +8 up or from −8 down
Entries and their z-score values follow.

COMPOUND	z-score
[N-]=[N+]=NCc1ccccc1[C@@H]1OC(c2ccc(OCCCO)cc2)=N[C@]1(Cc1ccccc1)C(=O)NCC(O)CO (some centres not stated)	-0.465
COC(=O)c1c(CC[C@@H](CO)NC(=O)NCCn2cc(C3(O)CCCC3)nn2)oc(C(C)=O)c1C(=O)OC	-0.828
CC(=O)NCCCC[C@@H]1NC(=O)[C@H]2C[C@@H](C(=O)NCCCCCCNC(=O)CS)[C@@H](c3ccc(O)cc3)N2C1=O	-1.35
C[C@@]1([C@@H](NC(=O)c2ccc(-c3ccccc3)cc2)c2ccc(Cl)cc2)C[C@H]1C1CCCCC1	-0.561
CCOC(=O)C[C@H]1[C@H](OC(=O)c2cc3ccccc3oc2=O)[C@@H](NC(=O)c2ccccc2)c2cc(OCCCO)ccc2N1C(=O)c1ccc2ccccc2n1	-1.2
[N-]=[N+]=NCc1ccccc1C[C@]1(C(=O)N2CCCCC2)N=C(c2ccc(OCCCO)cc2)O[C@H]1c1ccccc1N=[N+]=[N-]	-0.446
C=C(CCCC)/C(=C/C[C@H](OC(C)=O)c1ccccc1OCCO)c1cc(C(=O)OC)ccc1OC	0.257
C=CCOC(=O)[C@@H]1[C@H]2C(=O)O[C@H](c3ccccc3)[C@H](c3ccccc3)N2[C@H](c2ccc(OCCOC(=O)[C@@H]3C[C@@H]4C(=O)NCC(=O)N4[C@@H]3c3ccc(O)cc3)cc2)[C@@]12C(=O)Nc1ccc(I)cc12	-0.515
CC(C)=CCCC(C)=CC(O)C1C=CC2C(=O)N(C)C(=O)C2N1Nc1ccccc1 (configuration not stated)	0.0052
O=C1O[C@@H](c2ccccc2)[C@@H](c2ccccc2)N2[C@@H](c3ccccc3OCCO)[C@]3(C(=O)Nc4ccccc43)[C@@H](C(=O)Nc3nc4ccccc4s3)[C@H]12	-1.25
COC(=O)C(CC#Cc1ccc2c(c1)[C@]1(C(=O)N2)[C@H](c2ccc(OCCO)cc2)N2[C@H](c3ccccc3)[C@H](c3ccccc3)OC(=O)[C@H]2[C@@H]1C(=O)N1CCc2cc(OC)c(OC)cc2C1)C(=O)OC	-0.182
C=C(COC)/C(=C/C[C@@H](OC(C)=O)c1ccc(OCCO)cc1)c1cnc2ccccc2c1	0.968
COCCOC(=O)N1C(=O)[C@@]2(c3cc(C#Cc4ccc(OC)cc4)ccc31)[C@H](c1ccc(O)cc1)N1[C@H](c3ccccc3)[C@H](c3ccccc3)OC(=O)[C@H]1[C@@H]2C(=O)N1CCc2cc(OC)c(OC)cc2C1	-0.779
CC1(C)[C@@H]2CC(C(O)C3C=CC4C(=O)N(Cc5ccccc5)C(=O)C4N3n3cnnc3)=C[C@H]1C2 (some centres not stated)	0.102
C=C(CCCC)C(=O)CC[C@@H](OC(=O)c1ccccc1-c1ccccc1C(=O)O)c1ccc(OCCO)cc1	-0.297
CCCC[C@@H]1C[C@H]1[C@@H](NC(=O)c1ccccc1)c1ccc(C(=O)OC)cc1	-0.885
C=C(C)[C@@H]1CC=C(C(O)C2C=CC3C(=O)N(c4ccccc4)C(=O)C3N2Nc2ccccc2)CC1 (some centres not stated)	-0.0871
